Target: human mu-opioid peptide (hMOP) receptor (Homo sapiens (Human), UniProt P35372)
Sequence (P35372 whole entry): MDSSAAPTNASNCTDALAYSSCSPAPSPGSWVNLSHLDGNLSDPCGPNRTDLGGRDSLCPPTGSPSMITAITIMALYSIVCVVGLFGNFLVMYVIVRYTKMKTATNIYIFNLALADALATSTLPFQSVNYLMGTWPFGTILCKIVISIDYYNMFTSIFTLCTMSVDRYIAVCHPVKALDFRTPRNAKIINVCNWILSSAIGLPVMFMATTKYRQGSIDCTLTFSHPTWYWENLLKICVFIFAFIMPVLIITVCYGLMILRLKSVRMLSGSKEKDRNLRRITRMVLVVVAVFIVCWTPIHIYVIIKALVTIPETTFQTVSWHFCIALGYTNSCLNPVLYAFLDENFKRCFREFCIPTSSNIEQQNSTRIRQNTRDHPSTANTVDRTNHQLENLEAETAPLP
Test: hMOP receptor binding assay (SPA)
Here the recorded Ki is given for each entry.

Solved cases below.
CN(C)[C@]1(c2cccc(F)c2)C[C@@]2(CN(CCC#N)C(=O)N2CC2CC2)C1 [SC-44] : 0.11 µM
CN(C)[C@]1(c2ccccc2)C[C@]2(CN(CC(N)=O)C(=O)N2CC2CCC2)C1 [SC-9] : 0.048 µM

// switching to the query compound
# input compound: COC(C)(C)CN1C[C@]2(C[C@](c3cccc(F)c3)(N(C)C)C2)N(CC2CC2)C1=O [SC-37] ; wanted: its Ki
0.044 µM

----------
Molecular target: human mu-opioid peptide (hMOP) receptor (Homo sapiens (Human), UniProt P35372)
Assay: hMOP receptor binding assay (SPA)
Conditions: Ki; displacement of [3H]naloxone, hMOP receptor membranes; read-out: hMOP Ki [nM] or % inhibition at 1 μM
measuredProperty: Ki (nM)
Form entry: value (nM) — number only.

In the examples that follow, each entry is paired with its recorded Ki.
COc1nc(C#N)ncc1N1C[C@]2(C[C@@](c3ccccc3)(N(C)C)C2)N(CC2CCC2)C1=O [SC-11] : 3
CN(C)[C@]1(c2cccc(F)c2)C[C@@]2(CN(c3ccc(C(C)(C)O)cc3)C(=O)N2CC2CC2)C1 [SC-28] : 78
CN(C)[C@]1(c2cccc(F)c2)C[C@@]2(CN(CC3(F)COC3)C(=O)N2CC2CC2)C1 [SC-33] : 115
CN(C)[C@]1(c2ccccc2)C[C@@]2(CN(CCC#N)C(=O)N2CC2CC2)C1 [SC-45] : 37
Cc1cc(C(C)(C)O)ccc1N1C[C@]2(C[C@](c3ccccc3)(N(C)C)C2)NC1=O [SC-21] : 3580
CN(C)[C@]1(c2ccccc2)C[C@@]2(CN(c3cnc(C#N)c(C(F)(F)F)c3)C(=O)N2CC2CC2)C1 [SC-40] : 102

Which Ki reading was recorded for the compound CN(C)[C@]1(c2ccccc2)C[C@]2(CN(CC(=O)N3CCS(=O)(=O)CC3)C(=O)N2)C1 [SC-4] ?
15

----------
Biological target: human nociceptin/orphanin FQ peptide (hNOP) receptor (Homo sapiens (Human), UniProt P41146)
Test: hNOP receptor binding assay (SPA)
Conditions: Ki; displacement of [leucyl-3H]nociceptin, hNOP receptor membranes; read-out: hNOP Ki [nM] or % inhibition at 1 μM
Reported Ki values for a set of molecules
Quick note: give the figure in nM, leave out the unit.

CN(C)[C@]1(c2ccccc2)C[C@@]2(CN(c3ccc(C4CC4)nc3)C(=O)N2CC2CC2)C1 : 17
Cc1cc(C2CC2)ncc1N1C[C@]2(C[C@](c3ccccc3)(N(C)C)C2)N(CC2CC2)C1=O : 19
CN(C)[C@]1(c2cccc(F)c2)C[C@@]2(CN(c3ccc(OC(F)(F)F)cn3)C(=O)N2CC2(F)CC2)C1 : 91

Look up Ki for this molecule: Cc1cc(C(F)F)ncc1N1C[C@]2(C[C@](c3cccc(F)c3)(N(C)C)C2)NC1=O
380

Tell me the measured Ki of CN(C)[C@]1(c2ccccc2)C[C@]2(CN(CC(N)=O)C(=O)N2CC2CCC2)C1 [SC-9] , please.
380

Dear colleague, I am looking for the recorded Ki of the following molecule: Cc1nc(N2CCOCC2)ncc1N1C[C@]2(C[C@](c3ccccc3)(N(C)C)C2)NC1=O
630

I am curious: what Ki value has been reported for CN(C)[C@]1(c2cccc(F)c2)C[C@@]2(CN(c3ccc(OC(F)(F)F)cn3)C(=O)N2CC2(O)CCC2)C1 ?
12

What value of Ki has been reported for the following molecule? Cc1cc(C2CC2)ncc1N1C[C@]2(C[C@](c3ccccc3)(N(C)C)C2)N(CC2(F)COC2)C1=O
10

----------
Target: human nociceptin/orphanin FQ peptide (hNOP) receptor (Homo sapiens (Human))
Assay: hNOP receptor binding assay (SPA)
Conditions: Ki; displacement of [leucyl-3H]nociceptin, hNOP receptor membranes; read-out: hNOP Ki [nM] or % inhibition at 1 μM
I'd appreciate it if you marked entries MET when Ki is lower than 20 nM and NOT MET when it is not.

For orientation, consider the following solved cases.
CN(C)[C@]1(c2ccccc2)C[C@@]2(CN(CC(N)=O)C(=O)N2)C1 [SC-1] : NOT MET
CN(C)[C@]1(c2ccccc2)C[C@]2(CN(CC(N)=O)C(=O)N2CC2CCC2)C1 [SC-8] : MET
Cc1cc(C(C)(C)O)ccc1N1C[C@]2(C[C@](c3ccccc3)(N(C)C)C2)NC1=O [SC-21] : NOT MET
CN(C)[C@]1(c2ccccc2)C[C@@]2(CN(c3ccc(OC(F)(F)F)cn3)C(=O)N2CC2(F)COC2)C1 [SC-29] : MET

Does the reported Ki of the following molecule sit strictly below 20 nM? COc1nc(C#N)ncc1N1C[C@]2(C[C@@](c3ccccc3)(N(C)C)C2)NC1=O [SC-5]
NOT MET

----------
Molecular target: human mu-opioid peptide (hMOP) receptor (Homo sapiens (Human), UniProt P35372)
Assay: hMOP receptor binding assay (SPA)
Settings: Ki; displacement of [3H]naloxone, hMOP receptor membranes; read-out: hMOP Ki [nM] or % inhibition at 1 μM
measuredProperty: Ki (nM)
Numeric only. Scale: nM

# count of solved cases: 9
CN(C)[C@]1(c2ccccc2)C[C@@]2(CN(c3ccc(OC(F)(F)F)cn3)C(=O)N2CC2CC2)C1 : 100
CN(C)[C@]1(c2ccccc2)C[C@@]2(CN(c3cncc(C(F)(F)F)c3)C(=O)N2CC2CC2)C1 : 48
CN(C)[C@]1(c2cccc(F)c2)C[C@@]2(CN(c3ccc(OC(F)(F)F)cn3)C(=O)N2CC2(F)COC2)C1 : 545
Cc1cc(C(C)(C)O)ncc1N1C[C@]2(C[C@](c3ccccc3)(N(C)C)C2)NC1=O : 5840
COc1nc(C#N)ncc1N1C[C@]2(C[C@](c3ccccc3)(N(C)C)C2)N(CC2CCC2)C1=O : 157
Cc1cc(C2CC2)ncc1N1C[C@]2(C[C@](c3ccccc3)(N(C)C)C2)N(CC2CC2)C1=O : 185
CN(C)[C@]1(c2cccc(F)c2)C[C@@]2(CN(c3ccc(OC(F)(F)F)cn3)C(=O)N2CC2(O)CCC2)C1 : 335
CN(C)[C@]1(c2ccccc2)C[C@]2(CN(CC(N)=O)C(=O)N2CC2CCC2)C1 : 100
Cc1cc(C2CC2)ncc1N1C[C@]2(C[C@](c3ccccc3)(N(C)C)C2)N(CC2(F)COC2)C1=O : 330

What value of measured Ki is listed for CN(C)[C@]1(c2ccccc2)C[C@@]2(CN(CC3(O)CCC3)C(=O)N2CC2CC2)C1 ?
48

----------
Target: human mu-opioid peptide (hMOP) receptor (Homo sapiens (Human), UniProt P35372)
Assay: hMOP receptor binding assay (SPA)
Settings: Ki; displacement of [3H]naloxone, hMOP receptor membranes; read-out: hMOP Ki [nM] or % inhibition at 1 μM
Method: Human Mu-Opioidpeptide (hMOP) Receptor Binding Assay The hMOP receptor binding assay was performed as homogeneous SPA-assay (scintillation proximity assay) using the assay buffer 50 mM TRIS-HCl (pH 7.4) supplemented with 0.052 mg/ml bovine serum albumin (Sigma-Aldrich Co. St. Louis, Mo.). […]
measuredProperty: Ki (nM)
Quick note: give the figure in nM, leave out the unit.

CN(C)[C@]1(c2ccccc2)C[C@@]2(CN(c3cnc(-c4ccncc4)nc3)C(=O)N2CC2CC2)C1 : 83
Cc1cc(C#N)cnc1N1C[C@]2(C[C@](c3cccc(F)c3)(N(C)C)C2)N(CC2CC2)C1=O : 1320
Cc1cc(N2CCOCC2)ncc1N1C[C@]2(C[C@](c3ccccc3)(N(C)C)C2)NC1=O : 5890
CN(C)[C@]1(c2ccccc2)C[C@@]2(CN(c3ccc(OC(F)(F)F)cn3)C(=O)N2CC2(F)COC2)C1 : 65
CN(C)[C@]1(c2ccccc2)C[C@@]2(CN(c3ccc(C4CC4)nc3)C(=O)N2CC2CC2)C1 : 50
CN(C)[C@]1(c2cccc(F)c2)C[C@@]2(CN(c3ccc(OC(F)(F)F)cn3)C(=O)N2CC2CC2)C1 : 805

I would be grateful if you could share the reported Ki for Cc1cc(C(F)F)ncc1N1C[C@]2(C[C@](c3cccc(F)c3)(N(C)C)C2)N(CC2CC2)C1=O .
1180

Field request: Ki | item: COc1nc(C#N)ncc1N1C[C@]2(C[C@@](c3ccccc3)(N(C)C)C2)NC1=O
99

So what does the record say about Ki for CN(C)[C@]1(c2cccc(F)c2)C[C@@]2(CN(c3ccc(OC(F)(F)F)cn3)C(=O)N2CC2(F)CC2)C1 ?
1020
